# experiment_description: NCI Yeast Anticancer Drug Screen. Data for the rad50EPP+ strain (AID 151);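 further: 0% = growth of vehicle-treated control cultures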
# test_settings: S. cerevisiae rad50 mutant strain, at 100.0 µM, stronger effect = higher value
# Description: Growth inhibition of yeast strains with defined genetic alterations is measured as a screen for potential anti-cancer activity. Selected strains with alterations in DNA damage repair or cell cycle control were exposed to compounds and growth inhibition was measured relative to vehicle treated controls. The strain used in this assay is rad50EPP+
This is part of a sample that, as a whole, favours compounds with a hit. Of some 79,000 tested, about 15% had one in any assay.
recorded_endpoint: growth inhibition (%)
Numbers only, in %.

COc1cc(C(C)C(C(=O)O)C(=O)C(=O)O)cc(OC)c1OC (stereo unspecified)    1
CN(C)CCNC(=O)c1cccc2nc3c(ccc4ccccc43)nc12    96
CCOC(=O)C1=C(C)NC(C)=C(C(=O)OCC)C1c1ccc(Cl)cc1    -8

Give one value of growth inhibition per listed compound.
1. Nc1ccc2ncc(Nc3ccc(Cl)c(Cl)c3)nc2c1
2. O=[N+]([O-])C(=C(NCc1ccccc1)NCc1ccccc1)C(Cl)=C(Cl)Cl
3. O=C(O)CN(CCNC(=O)OCC1c2ccccc2-c2ccccc21)CCNC(=O)OCC1c2ccccc2-c2ccccc21
4. O=C1c2ccccc2C2CCC1c1ccccc12 (stereo unspecified)

59
85
5
68
